Tested on: Vero E6 infected with SARS-CoV-2
Assay text: inhibition of SARS-CoV-2 cytopathic effect; higher = more antiviral protection, active = above 15
Assay conditions: 100 nM; 48 h
Result type: inhibition of SARS-CoV-2 cytopathic effect (%)
Number only, in %; omit the unit.

[Q] Could you share which inhibition of SARS-CoV-2 cytopathic effect value was measured for NCCc1c[nH]c2ccc(O)cc12 [serotonin] ?
[A] 2.41

[Q] Could you share which inhibition of SARS-CoV-2 cytopathic effect value was measured for CN(C)CCOC(c1ccc(Cl)cc1)c1ccccn1 (centres undefined) [carbinoxamine] ?
[A] 1.23

[Q] Could you share which inhibition of SARS-CoV-2 cytopathic effect value was measured for O=C(CNC(=O)c1cccc(C(F)(F)F)c1)N[C@@H]1CCN(Cc2ccc(Cl)cc2)C1 [teijin-compound-1] ?
[A] 0.66

Alright, here's another compound for you.
[Q] Could you share which inhibition of SARS-CoV-2 cytopathic effect value was measured for Cc1cnc(C(=O)N[C@H]2CCCCC/C=C\[C@@H]3C[C@@]3(C(=O)NS(=O)(=O)C3CC3)NC(=O)[C@@H]3C[C@@H](Oc4nc5ccccc5c5ccccc45)CN3C2=O)cn1 [paritaprevir] ?
[A] -0.72

====

// inhibition of SARS-CoV-2 cytopathic effect lookup, one value per entry
Tested on: Vero E6 infected with SARS-CoV-2
Assay text: inhibition of SARS-CoV-2 cytopathic effect; higher = more antiviral protection, active = above 15
Assay conditions: 10000 nM; 48 h
Number only, in %; omit the unit.

Known inhibition of SARS-CoV-2 cytopathic effect results, listed for orientation:
[Q] Could you share which inhibition of SARS-CoV-2 cytopathic effect value was measured for "CC[C@H]1[C@@H](O)[C@@H]2[C@H](CC[C@]3(C)[C@@H]([C@H](C)CCOS(=O)(=O)O)CC[C@@H]23)[C@@]2(C)CC[C@@H](O)C[C@@H]12" ?
[A] 1.9

[Q] Could you share which inhibition of SARS-CoV-2 cytopathic effect value was measured for "Cc1nn(C)c2nc(NNC(=O)Nc3cc(Cl)nc(Cl)c3)cc(C(C)C)c12" ?
[A] 1.05

[Q] Could you share which inhibition of SARS-CoV-2 cytopathic effect value was measured for "CCN(CC)C(=O)[C@@]1(c2ccccc2)C[C@H]1CN" ?
[A] 1.05

Alright, here's another compound for you.
[Q] Could you share which inhibition of SARS-CoV-2 cytopathic effect value was measured for "CCc1c(O)cc(O)c(C(=O)c2ccc(OCCN3CCOCC3)c(OC)c2)c1CC(=O)N(CCOC)CCOC" ?
[A] 0.48

====

// inhibition of SARS-CoV-2 cytopathic effect lookup, one value per entry
Tested on: Vero E6 infected with SARS-CoV-2
Assay text: inhibition of SARS-CoV-2 cytopathic effect; higher = more antiviral protection, active = above 15
Assay conditions: 100 nM; 48 h
Number only, in %; omit the unit.

Known inhibition of SARS-CoV-2 cytopathic effect results, listed for orientation:
[Q] # query: inhibition of SARS-CoV-2 cytopathic effect | item "C[C@H](CCC(=O)O)[C@H]1CC[C@H]2[C@@H]3CC[C@@H]4C[C@H](O)CC[C@]4(C)[C@H]3C[C@H](O)[C@]12C" | system: Vero E6 infected with SARS-CoV-2
[A] -1.84

[Q] # query: inhibition of SARS-CoV-2 cytopathic effect | item "NCCc1c[nH]c2ccc(C(N)=O)cc12" | system: Vero E6 infected with SARS-CoV-2
[A] 3.52

Alright, here's another molecule for you.
[Q] # query: inhibition of SARS-CoV-2 cytopathic effect | item CN1C(=O)N(c2ccc(C#N)c(C(F)(F)F)c2)C(=O)[C@]1(CO)c1ccccc1 [GLPG0492-R-enantiomer] | system: Vero E6 infected with SARS-CoV-2
[A] 0.3
